Listed next: entries and their corresponding IC50.
target: UniProt:Q96P20; assay: Human whole blood IL1β release assay (LPS + nigericin, AlphaLisa IL-1β; HWB IC50); assay type: cell-based; parameters: Human whole blood in Li-heparin tubes was obtained from healthy donors from a volunteer donor panel; from tissue; host or cells: human whole blood from healthy donors; conditions: IL-1β release
Counter-ions that a name gives are not always drawn.
ENDPOINT_LABEL: IC50

In [3]: df
Out[3]:
                                   molecule  experimental_value
0  CNCC(C)(C)n1ccc(S(=O)(=O)NC(=O)Nc2c(-c3ccnc(OC)c3)ccc3c2CCC3)n1 [Example 197, sodium salt]            ≤ 0.5 µM
1  CN(C)CCn1ccc(S(=O)(=O)NC(=O)Nc2c(-c3cccnc3)cc(F)c3c2CCC3)n1 [Example 62]              ≤ 5 µM
2  CNc1cc(-c2ccc3c(c2NC(=O)NS(=O)(=O)c2ccn(C4CC4)n2)CCC3)ccn1 [Example 253]              ≤ 5 µM
3  CC(C)n1ccc(S(=O)(=O)NC(=O)Nc2c(-c3ccnc(OC4CCC4)c3)ccc3c2CCC3)n1 [Example 294, sodium salt]              ≤ 5 µM

----------
target: NLRP3 (Homo sapiens, UniProt Q96P20); test: THP-1 cells pyroptosis assay (LPS + nigericin, resazurin readout; THP IC50); assay type: cell-based; design: Seed THP-1 cells (25,000 cells/well) containing 1.0 μg/ml LPS in 40 μl of RPMI medium; host or cells: THP-1 cells
Sequence (Q96P20 whole entry): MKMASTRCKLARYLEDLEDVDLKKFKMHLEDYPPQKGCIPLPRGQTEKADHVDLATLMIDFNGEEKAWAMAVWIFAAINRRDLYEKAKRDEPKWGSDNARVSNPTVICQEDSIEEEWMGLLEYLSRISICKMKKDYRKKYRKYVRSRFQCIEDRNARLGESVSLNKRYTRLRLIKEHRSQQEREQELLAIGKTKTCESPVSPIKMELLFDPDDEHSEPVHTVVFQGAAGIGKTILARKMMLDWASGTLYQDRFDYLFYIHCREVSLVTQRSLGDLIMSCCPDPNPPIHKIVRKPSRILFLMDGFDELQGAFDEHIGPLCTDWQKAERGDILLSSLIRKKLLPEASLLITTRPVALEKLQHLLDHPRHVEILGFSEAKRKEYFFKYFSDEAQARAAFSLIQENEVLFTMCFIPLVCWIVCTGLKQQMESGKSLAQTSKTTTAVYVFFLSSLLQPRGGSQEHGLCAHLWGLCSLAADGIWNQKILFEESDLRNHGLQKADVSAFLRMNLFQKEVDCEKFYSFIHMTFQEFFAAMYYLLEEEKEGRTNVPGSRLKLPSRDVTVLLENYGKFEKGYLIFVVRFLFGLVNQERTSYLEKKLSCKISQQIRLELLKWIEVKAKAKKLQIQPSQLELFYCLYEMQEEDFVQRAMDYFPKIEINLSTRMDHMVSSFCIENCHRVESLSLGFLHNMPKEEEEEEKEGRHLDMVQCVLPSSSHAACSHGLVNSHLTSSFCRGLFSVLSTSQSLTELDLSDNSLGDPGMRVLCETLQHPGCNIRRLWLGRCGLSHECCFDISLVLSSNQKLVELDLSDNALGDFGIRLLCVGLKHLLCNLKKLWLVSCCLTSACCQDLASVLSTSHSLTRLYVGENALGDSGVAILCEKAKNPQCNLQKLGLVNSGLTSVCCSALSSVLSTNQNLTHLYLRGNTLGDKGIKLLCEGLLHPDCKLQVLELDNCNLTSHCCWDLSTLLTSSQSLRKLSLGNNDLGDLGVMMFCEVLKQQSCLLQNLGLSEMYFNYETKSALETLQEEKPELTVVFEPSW
Where a name gives a salt, the structure may show the parent alone.
ENDPOINT_LABEL: IC50

>>> df
                                   compound                       target_of_assay  experimental_value
0  CC(C)c1cc(F)cc(-c2ccnc(C#N)c2)c1NC(=O)NS(=O)(=O)c1ccn(C(C)C)n1  NLRP3 (Homo sapiens, UniProt Q96P20)            ≤ 500 nM
1  CC(C)c1cc(F)cc(-c2cnn(C)c2)c1NC(=O)NS(=O)(=O)c1cn(C(C)C)cn1  NLRP3 (Homo sapiens, UniProt Q96P20)           ≤ 5000 nM
2  CC(c1ccccc1)S(=O)(=O)NC(=O)Nc1c(-c2ccncc2)cc(F)c2c1CCC2 (centres unmarked)  NLRP3 (Homo sapiens, UniProt Q96P20)           ≤ 5000 nM
3  COc1cc(-c2ccc3c(c2NC(=O)NS(=O)(=O)CCOC(C)C)CCC3)ccn1 [Example 174, sodium salt]  NLRP3 (Homo sapiens, UniProt Q96P20)            ≤ 500 nM
4  CC(C)c1cc(F)cc(-c2cncn2C)c1NC(=O)NS(=O)(=O)c1ccn(C(C)C)n1  NLRP3 (Homo sapiens, UniProt Q96P20)           ≤ 5000 nM
5  CN1CCC(N(C)S(=O)(=O)NC(=O)Nc2c(-c3ccnc(C#N)c3)ccc3c2CCC3)C1 (centres unmarked)  NLRP3 (Homo sapiens, UniProt Q96P20)            ≤ 500 nM
6  COc1cc(-c2ccc3c(c2NC(=O)NS(=O)(=O)CC2CCN(C)C2)CCC3)ccn1 (centres unmarked)  NLRP3 (Homo sapiens, UniProt Q96P20)            ≤ 500 nM
7  O=C(Nc1c(-c2ccncc2)cc(F)c2c1CCC2)NS(=O)(=O)CCc1ccccc1  NLRP3 (Homo sapiens, UniProt Q96P20)           ≤ 1000 nM

----------
Listed next: entries and their corresponding IC50.
molecular target: UniProtKB Q96P20; assay: THP-1 cells pyroptosis assay (LPS + nigericin, resazurin readout; THP IC50); assay type: cell-based; set-up: Seed THP-1 cells (25,000 cells/well) containing 1.0 μg/ml LPS in 40 μl of RPMI medium; host or cells: THP-1 cells
Where a name gives a salt, the structure may show the parent alone.
ENDPOINT_LABEL: IC50

>>> print(df.to_string())
                                   molecule   target_of_assay  endpoint_label  experimental_value
0  CC(C)n1cc(S(=O)(=O)NC(=O)Nc2c(-c3ccnc(C#N)c3)ccc3c2CCC3)nn1 [Example 230, sodium salt]  UniProtKB Q96P20            IC50            ≤ 0.5 µM
1  CC(C)(C)n1ccc(S(=O)(=O)NC(=O)Nc2c(-c3ccnc(C#N)c3)ccc3c2CCC3)n1 [Example 264, sodium salt]  UniProtKB Q96P20            IC50            ≤ 0.5 µM
2  COc1cc(-c2ccc3c(c2NC(=O)NS(=O)(=O)c2ccn(C(C)(C)C(=O)N(C)C)n2)CCC3)ccn1  UniProtKB Q96P20            IC50            ≤ 0.5 µM
3  COc1cc(-c2cc(F)c3c(c2NC(=O)NS(=O)(=O)c2ccn(C4CC4)n2)CCC3)ccn1 [Example 170, sodium salt]  UniProtKB Q96P20            IC50            ≤ 0.5 µM
4  CC(C)n1ccc(S(=O)(=O)NC(=O)Nc2c(-c3ccnc(OC4CCCOC4)c3)ccc3c2CCC3)n1 (stereo not drawn) [Example 288, sodium salt]  UniProtKB Q96P20            IC50            ≤ 0.5 µM
5  CC(C)n1ccc(S(=O)(=O)NC(=O)Nc2c(-c3ccnc(OC4CCC4)c3)ccc3c2CCC3)n1 [Example 294, sodium salt]  UniProtKB Q96P20            IC50            ≤ 0.5 µM
6  CC(C)n1ccc(S(=O)(=O)NC(=O)Nc2c(-c3cncn3C)ccc3c2CCC3)n1  UniProtKB Q96P20            IC50              ≤ 5 µM
7  CC(C)c1cc(F)cc(-c2cccnc2)c1NC(=O)NS(=O)(=O)c1cc(C(=O)N(C)C)n(C)n1 [Example 33, sodium salt]  UniProtKB Q96P20            IC50            ≤ 0.5 µM
8  O=C(Nc1c2c(nn1-c1ccncc1)CCC2)NS(=O)(=O)c1ccn(C2CC2)n1  UniProtKB Q96P20            IC50              ≤ 5 µM

----------
assay: PK protocol, intravenous administration; type: in vivo, male Sprague Dawley rats; conditions: male, Sprague Dawley, plasma, dose 1.69 mg/kg, rat
ENDPOINT_LABEL: half-life (h)

>>> print(df.to_string())
                                   compound  endpoint_label  value_units  experimental_value
0  COc1cc(-c2ccc3c(c2NC(=O)NS(=O)(=O)c2ccn(CCN(C)C)n2)CCC3)ccn1 [Example 61]       half-life            h                 1.2

----------
Test: PK protocol, intravenous administration
Type: in vivo, male Sprague Dawley rats
Conditions: male, Sprague Dawley, plasma, dose 1 mg/kg, rat
Experimental: Pharmacokinetic parameters were determined in male Sprague Dawley rats (Charles River, UK, 250-350 g; or Vital River Laboratory Animal Technology Co Ltd, Beijing, China, 7-9 weeks old). Animals were individually housed during the study and maintained under a 12 h light/dark cycle. Animals had free access to food and water. For intravenous administration, compounds were formulated as a solution in water or DMSO:PBS [10:90] in 2 mL/kg dosing volume and administered via tail vein. […]
Where a name gives a salt, the structure may show the parent alone.
Recorded clearance determines the group label, using low value (below 30 mL/min/kg), medium value (30 mL/min/kg to below 60 mL/min/kg), high value (60 mL/min/kg or more)

In [3]: df
Out[3]:
                                    molecule         group
 0  CC(C)c1cc(F)cc(-c2cccc(C#N)c2)c1NC(=O)NS(=O)(=O)c1cc(CN(C)C)n(C)n1  medium value
 1  CC(C)c1cc(F)cc(C2CCOCC2)c1NC(=O)NS(=O)(=O)c1cc(C(=O)N(C)C)n(C)n1 [Example 30, sodium salt]    high value
 2  CC(C)c1cc(F)cc(-c2cnn(C)c2)c1NC(=O)NS(=O)(=O)c1cc(C(=O)N(C)C)n(C)n1 [Example 34, sodium salt]     low value
 3  CC(C)n1ccc(S(=O)(=O)NC(=O)Nc2c(-c3ccnnc3)ccc3c2CCC3)n1 [Example 223, sodium salt]     low value
 4  COc1cc(-c2ccc3c(c2NC(=O)NS(=O)(=O)c2ccn(C(C)C)n2)CCO3)ccn1 [Example 224, sodium salt]     low value
 5  CC(C)c1cc(F)cc(-c2cccnc2)c1NC(=O)NS(=O)(=O)c1ccn(C[C@@H](C)O)n1  medium value
 6  CC(C)n1cc(S(=O)(=O)NC(=O)Nc2c(-c3ccnc(C#N)c3)ccc3c2CCC3)nn1 [Example 230, sodium salt]     low value
 7  CC(C)c1cc(F)cc(-c2ccnc(O)c2)c1NC(=O)NS(=O)(=O)c1ccn(C(C)C)n1  medium value
 8  CC(C)c1cc(F)cc(-c2ccnc(C#N)c2)c1NC(=O)NS(=O)(=O)c1cn(C(C)C)cn1    high value
 9  CC(C)c1cc(F)cc(-c2cccnc2)c1NC(=O)NS(=O)(=O)c1cc(CN(C)C)n(C)n1    high value
10  Cc1cc(-c2cc(F)cc(C(C)C)c2NC(=O)NS(=O)(=O)c2cc(CN(C)C)n(C)n2)n(C)n1    high value
11  CC(C)c1cc(F)cc(-c2ccnc(C#N)c2)c1NC(=O)NS(=O)(=O)c1ccn(C(C)C)n1  medium value
12  CC(C)c1cc(F)cc(-c2cccnc2)c1NC(=O)NS(=O)(=O)c1ccn(C(C)C)n1  medium value
13  CC(C)n1ccc(S(=O)(=O)NC(=O)Nc2c(-c3ccncc3)cc(F)c3c2CCC3)n1     low value
